B1: CLCN6 (parent)
chain: TGLVGLFVDFFVRLFTQLKFGVVQ

Variants of: B1
assay remarks: protein stability index of a GFP-peptide fusion (GPS, HEK-293T) (PSI 1-6); higher = more stable;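 further: lentivirally expressed fusions sorted by FACS into six bins by GFP to DsRed ratio, PSI derived from sequencing read proportions per bin multiplied by bin number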
details: c terminus: a fixed tail appended
measured property: protein stability index
Give the value as a plain number.

Examples with their reported protein stability index follow.
TGLVGLFVDFFVRCFTQLKFGVVQ [L14C]
2.1
TGLVGRFVDFFVRLFTQLKFGVVQ [L6R]
3.73
TGLVGLFVDFFVRLFTQLKQGVVQ [F20Q]
3.83
TPLVGLFVDFFVRLFTQLKFGVVQ [G2P]
1.67
TGLVGLFVDFFVRLFTQLKFGVVW [Q24W]
2.36

INPUT: Respond only with protein stability index recorded for TGLVGKFVDFFVRLFTQLKFGVVQ [L6K]
OUTPUT: 2.44

INPUT: Recall and state the measured protein stability index for TGLVGLFVDFFVRLFTQLKFGVVD [Q24D] .
OUTPUT: 2.46

INPUT: Tell me its protein stability index given TGLVGLFVEFFVRLFTQLKFGVVQ [D9E] as the entry.
OUTPUT: 2.12

INPUT: Fill in reported protein stability index for this entry: TGLSGLFVDFFVRLFTQLKFGVVQ [V4S]
OUTPUT: 2.63

INPUT: Indicate the recorded protein stability index value for this variant: TGLVGLFVDFFVRLFTQLKMGVVQ [F20M]
OUTPUT: 2.77

INPUT: Note down protein stability index recorded for TGLVGLFVDFFIRLFTQLKFGVVQ [V12I]
OUTPUT: 2.02

INPUT: Consider the variant TGLVGLFVDFFVELFTQLKFGVVQ [R13E] . State its measured protein stability index.
OUTPUT: 2.34

INPUT: Dear colleague, please send me the reported protein stability index for TGLVGLFVDFFVRLHTQLKFGVVQ [F15H] when you can.
OUTPUT: 2.71

INPUT: Quickly give me recorded protein stability index for TGLVGLFLDFFVRLFTQLKFGVVQ [V8L]
OUTPUT: 3.04
